Reference source for all entries: patent US11299475B2

# testedTarget: PGI2 receptor (Homo sapiens, UniProt P43119)
# Construct: host or cells: thawed 'PGI2 cell' suspension
# Sequence (P43119 whole entry, species assumed): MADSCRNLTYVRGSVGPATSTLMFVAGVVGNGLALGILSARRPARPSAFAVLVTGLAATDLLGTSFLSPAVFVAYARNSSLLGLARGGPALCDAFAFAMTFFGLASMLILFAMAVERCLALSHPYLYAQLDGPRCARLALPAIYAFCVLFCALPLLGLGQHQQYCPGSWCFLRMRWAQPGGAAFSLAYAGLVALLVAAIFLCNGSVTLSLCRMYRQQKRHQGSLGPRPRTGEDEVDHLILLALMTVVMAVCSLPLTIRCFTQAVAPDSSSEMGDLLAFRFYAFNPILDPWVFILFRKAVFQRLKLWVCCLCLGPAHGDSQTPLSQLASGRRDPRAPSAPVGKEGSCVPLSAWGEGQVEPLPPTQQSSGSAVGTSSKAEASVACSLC
# method: PGI2 cAMP cell assay in vitro (HTRF cAMP)
# Assay type: cell-based
# conditionLabel: cells in vitro
quantityMeasured: EC50 (nM)

Data request: Entry O=C(O)COCC1(F)CCN(c2cncc(N(c3ccccc3)c3ccc(F)cc3)n2)CC1 has what EC50?
Data returned: 0.43

Data request: COc1cccc(N(c2ccccc2)c2cncc(N3CCC(F)(COCC(=O)O)CC3)n2)c1 , same question.
Data returned: 0.41

Data request: Same question, O=C(O)COCC1(F)CCN(c2cncc(N(c3ccccc3)c3cc(Cl)ccn3)n2)CC1 this time
Data returned: 1.98

Data request: Would you mind doing O=C(O)COCC1CCN(c2cncc(N(c3ccccc3)c3ccc(OC(F)F)cc3)n2)CC1 as well?
Data returned: 4.17

1 = COc1cccc(N(c2ccc(F)cn2)c2cncc(N3CCC(F)(COCC(=O)O)CC3)n2)c1
2 = O=C(O)COCC1(F)CCN(c2cncc(N(c3ccccc3)c3ccc(Cl)cc3)n2)CC1
Data request: Returns: the argument ( 1 or 2 ) having the larger EC50. // output: label of the selected item
Data returned: 1
(1: 4.19 nM, 2: 0.8 nM)
